This collection of values is drawn from PubChem BioAssay (NCI).

# System: M14 melanoma
# protocol_notes: NCI-60 one-dose screen, 48 h
# condition_details: 10 µM
This is part of a sample that, as a whole, favours compounds with a hit. Of some 83,000 tested, about 20% had one in any assay. Active and inactive are the calls of the source. How the source made its calls: active means growth percent below 10; inactive means the rest.
Possible outcomes: label 1 (active), label 0 (inactive)

{"columns": ["record_smiles", "assigned_class"],
 "data": [
  ["Cn1cc(-c2nc(N)nnc2-c2c[nH]c3ccccc23)c2cc(Br)cnc21", "label 1"],
  ["O=C(Nc1ccc(OCc2ccc(F)cc2)cc1)Nc1ccc(Cl)c(C(F)(F)F)c1", "label 1"],
  ["O=C(c1ccc(F)cc1)C(c1c[nH]c2ccccc12)c1c[nH]c2ccccc12", "label 0"],
  ["COc1cc(Nc2nc(O)c(/C=C3\\C=Nc4ccccc43)s2)cc(OC)c1OC", "label 1"]
]}
